- Test system: Candida albicans
- Assay text: Antifungal activity against Candida albicans at 50 mg/disk after 5 days by agar disk diffusion method
- Format: functional
Answer no if diameter of the inhibition zone (DIZ) is under 9 mm, and yes if it is 9 mm or more.

Ask | Hi team, for CC1(C)CC(=O)C2=C(C1)Nc1nc(N/N=C\c3ccc(Cl)cc3)[nH]c(=O)c1C2c1ccc([N+](=O)[O-])cc1 (stereo not given) , is the recorded diameter of the inhibition zone (DIZ) at or above 9 mm?
Reply | no

Ask | API: above_or_equal(metric=diameter of the inhibition zone (DIZ), cutoff=9 mm) for item CSc1nc2c(c(=O)[nH]1)C(c1ccc([N+](=O)[O-])cc1)C1=C(CC(C)(C)CC1=O)N2[C@@H]1O[C@H](CO)[C@H](O)[C@H](O)[C@H]1O (stereo not given in full)
Reply | no

Ask | I'd appreciate it if you could say whether CC1(C)CC(=O)C2=C(C1)Nc1nc3n(N)c(-c4ccccc4)cn3c(=O)c1C2c1ccc([N+](=O)[O-])cc1 (stereo not given) has diameter of the inhibition zone (DIZ) at least equal to 9 mm.
Reply | no

Ask | hey, is diameter of the inhibition zone (DIZ) for this one >= 9 mm? CC1(C)CC(=O)C2=C(C1)Nc1nc3[nH]nnn3c(=O)c1C2c1ccc([N+](=O)[O-])cc1 (stereo not given)
Reply | yes

Ask | Dear colleague, could you confirm whether CSc1nc2c(c(=O)[nH]1)C(c1ccc([N+](=O)[O-])cc1)C1=C(CC(C)(C)CC1=O)N2 (stereo not given) has diameter of the inhibition zone (DIZ) at or above 9 mm?
Reply | no

Ask | Please indicate if the recorded diameter of the inhibition zone (DIZ) for CSc1nc2c(c(=O)[nH]1)C(c1ccc([N+](=O)[O-])cc1)C1=C(CC(C)(C)CC1=O)N2[C@@H]1O[C@H](COC(C)=O)[C@@H](OC(C)=O)[C@H](OC(C)=O)[C@H]1OC(C)=O (stereo not given in full) meets or exceeds 9 mm.
Reply | no

Ask | Hello, I need to know if CSc1nc2c(c(=O)n1C)C(c1ccc([N+](=O)[O-])cc1)C1=C(CC(C)(C)CC1Cl)N2 (stereo not given) has measured diameter of the inhibition zone (DIZ) not below 9 mm. Thanks!
Reply | yes

Ask | Given CSc1nc2c(c(=O)[nH]1)C(c1ccc([N+](=O)[O-])cc1)C1=C(CC(C)(C)CC1=O)N2[C@@H]1O[C@H](COC(C)=O)[C@H](OC(C)=O)[C@H](OC(C)=O)[C@H]1OC(C)=O (stereo not given in full) , state whether its diameter of the inhibition zone (DIZ) is at least 9 mm.
Reply | no

Ask | Threshold query (diameter of the inhibition zone (DIZ) >= 9 mm) on CSc1nc2c(c(=O)[nH]1)C(c1ccc([N+](=O)[O-])cc1)C1=C(CC(C)(C)CC1=O)N2[C@@H]1O[C@H](COC(C)=O)[C@@H](OC(C)=O)[C@@H]1OC(C)=O (stereo not given in full)
Reply | no

Ask | Does the compound COc1ccc(/C=N\Nc2nc3c(c(=O)[nH]2)C(c2ccc([N+](=O)[O-])cc2)C2=C(CC(C)(C)CC2=O)N3)cc1 (stereo not given) have recorded diameter of the inhibition zone (DIZ) that is 9 mm or more?
Reply | no

Ask | Given the entry Cc1n[nH]c2nc3c(c(=O)n12)C(c1ccc([N+](=O)[O-])cc1)C1=C(CC(C)(C)CC1=O)N3 (stereo not given) , answer whether its diameter of the inhibition zone (DIZ) meets or surpasses 9 mm.
Reply | yes
